System: JHU-022 (Oral Cavity Carcinoma);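 also: after 72 h of two-drug dosing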
MEASUREMENT_DESCRIPTION: Bliss excess, mean over the matrix (fraction); higher = more synergy
Is Bliss excess at least -0.02? Then MET. If not, NOT MET.

CN(C)CCCOc1ccc(-c2ccc3ncc4c(c3c2)n(C2CCOCC2)c(=O)n4C)cn1 [AZD0156] + C[C@@H]1COCCN1C2=NC(=NC(=C2)C3(CC3)[S@](=N)(=O)C)C4=C5C=CNC5=NC=C4 [AZD6738] (first compound max 1 µM, 7x7, partner max 10 µM)    MET
COc1nnc2ccc(N3CCC(c4ccc(OCCN5CCN(C)C(=O)[C@H]5C)cc4)CC3)nn12 [AZD5153] + Cc1c2c(nn1C)CSCc1cc(n(C)n1)CSc1cc(c3ccccc3c1)OCCCc1c(C(=O)O)n(C)c3c-2c(Cl)ccc13 [AZD5991] (first compound max 1 µM, 7x7, partner max 1 µM)    NOT MET
C=CCn1c(=O)c2cnc(Nc3ccc(N4CCN(C)CC4)cc3)nc2n1-c1cccc(C(C)(C)O)n1 [AZD1775] + CCc1c2c(nc3ccc(O)cc13)-c1cc3c(c(=O)n1C2)COC(=O)[C@]3(O)CC [SN-38] (first compound max 1 µM, partner max 0.3 µM)    NOT MET

Please find the next molecule below.
Exercise: Bliss excess >= -0.02 for CN(CCO)CC[C@H](CSc1ccccc1)Nc1ccc(S(=O)(=O)NC(=O)c2ccc(N3CCC([C@@H](O)c4ccccc4-c4ccc(Cl)cc4)CC3)cc2)cc1S(=O)(=O)C(F)(F)F [AZD4320] + Cc1cc2ncnn2cc1Nc1ncc2c(n1)n(C1CCOCC1)c(=O)n2C [AZD7648] (first compound max 1 µM, 7x7, partner max 10 µM) ?
Solution: NOT MET
